tested on: MDA-N; experiment: NCI tumour cell line growth inhibition, 48 h
The following compounds are shown together with reported TGI values.

compound	TGI
Cn1c(=O)c(C(=O)Nc2nc(C34CC5CC(CC(C5)C3)C4)cs2)c(O)c2ccccc21	> 100 µM
O=C(/C=C/c1ccc(O)c(O)c1)OCCCc1ccccc1	31.3 µM
C[C@H](CCC(=O)NCCS(=O)(=O)O)[C@H]1CC[C@H]2[C@@H]3CC[C@@H]4C[C@H](O)CC[C@]4(C)[C@H]3CC[C@]12C	> 100 µM
CCCC(=O)NC1=C(Cl)C(=O)c2ccccc2C1=O	14.6 µM
COC(=O)/C(=C\Nc1cccc(C)n1)S(=O)(=O)c1ccc(C)cc1	> 100 µM
Cc1c(Cl)nc(Nc2nc3ccccc3[nH]2)nc1Cl	> 100 µM
CC1(C)N=C(C(N)=O)c2ncn(N)c2N1	> 100 µM
CCC(CON(C)c1ccccc1)(SC)SC	> 100 µM
CC(=O)OCC1OC(n2c(-c3ccc(Cl)cc3)ccc(C#N)c2=S)C(OC(C)=O)C(OC(C)=O)C1OC(C)=O (stereo unspecified)	> 100 µM
CN(C)CCNC(=O)c1cccc2c(NCCN(C)C)c3ccccc3nc12	8.18 µM
COc1cc(C2c3cc4c(cc3[C@@H](Nc3ccccc3)C3COC[C@H]23)OCO4)cc(OC)c1O (stereo partly specified)	> 100 µM

* * *

tested on: NCI-H460 lung; test: NCI tumour cell line growth inhibition, 48 h
The following molecules are shown together with reported TGI values.

molecule	unitAbbreviation	resultComparator	TGI
BrCCCCCOc1ccc(-c2c3ccccc3c(-c3ccc(OCCCCCBr)cc3)c3ccccc23)cc1	µM	>	100
COc1ccc2c(CCN)c(C(=O)O)[nH]c2c1	µM	>	100
CC(C)=CCc1c(OC(=O)c2c(C)cc(O)cc2O)cc(CO)c(CO)c1O	µM	=	39.2
N#CC1=C(N)n2c(s/c(=C\c3ccc(Cl)cc3)c2=O)=C(c2nc3ccccc3[nH]2)C1c1ccc(Cl)cc1 (configuration not stated)	µM	=	8.03
COC(=O)C1C/C(=C/N(C)C)C(=S)N1 (configuration not stated)	µM	=	35.4
O=C(/C=C/c1ccc(O)c(O)c1)OCCCc1ccccc1	µM	=	55.6
CN(C)CC(C)(C)C(=O)/C=C/c1ccc(/C=C/C(=O)C(C)(C)CN(C)C)cc1	µM	=	13.9
COC(=O)CCc1c[nH]c2ccc(N(CCCl)CCCl)cc12	µM	=	12.9
COC(=O)N(C(=O)OC)C(C(=O)O)C(C)C (configuration not stated)	µM	>	100
CN1CCCC2(CCCc3ccccc32)C1 (configuration not stated)	µM	>	100
Clc1nc(Cl)c2ncn(Cc3cccc(Cn4cnc5c(Cl)nc(Cl)nc54)c3)c2n1	µM	=	13.6
C=C(C)C(=O)O[C@H]1C[C@@]23O[C@@H]2CCC(=C[C@H]2OC(=O)C(=C)[C@H]12)COC3O (some centres not stated)	µM	>	100
Cc1ccc(S(=O)(=O)NC(=O)C2C(=O)CC3(CCCCC3)CC2=O)cc1	µM	=	74.9
COC(=O)c1c2c(c[n+]([O-])c1C)C(=O)C=CC2=O	µM	=	28
Cc1ccc(NC(=O)C2C(=O)N(c3ccc(C)cc3)C(=O)/C2=N\NC(N)=S)cc1 (configuration not stated)	µM	>	100
CCOP(=O)(OCC)/C(C#N)=C/c1cn(C)cn1	µM	>	100
c1cc(N(CCn2cccn2)CCn2cccn2)cc(N(CCn2cccn2)CCn2cccn2)c1	µM	>	100
O=S(=O)(Nc1ccccc1Cl)c1ccc(-c2cnc(C3CC3)o2)cc1	µM	=	15.6
O=C1NC(SSC2=NNC3(C(=O)N2)c2ccccc2-c2ccccc23)=NNC12c1ccccc1-c1ccccc12	µM	>	10
CC(=O)N=C1N(/C=C2\C(=O)Oc3ccccc3C2=O)C(=O)/C(=C/c2ccc(OC(C)=O)cc2)N1C	µM	>	100
OC(c1cc2ccccc2o1)c1cc2ccccc2s1 (configuration not stated)	µM	>	10
COc1ccc(-c2cc(=O)c3cc4c(cc3[nH]2)OCO4)cc1OC	µM	>	100

* * *

tested on: COLO 205 colon; test: NCI tumour cell line growth inhibition, 48 h; in the data active means GI50 below about 0.43 µM; inactive means the rest
Outcomes: 1.0 (active), 0.0 (inactive)

compound	classAssignment
CCc1cccc(C)c1NC(=O)c1sc2nc3c(cc2c1N)CCCCC3	0.0
COc1cc(-c2cc3ncccc3c3nc(N)c4cccnc4c23)cc(OC)c1OC	1.0
COC(=O)CCc1c[nH]c2ccc(N(CCCl)CCCl)cc12	0.0
CCOC(=O)N1CCN(c2nc(Nc3cc(C)[nH]n3)c3ccccc3n2)CC1	0.0
C=C1C(=O)O[C@H]2[C@H]1CC/C(COC(=O)CSCCSCC(=O)OC/C1=C/CC[C@@]3(C)O[C@H]3[C@H]3OC(=O)C(=C)[C@@H]3CC1)=C\CC[C@@]1(C)O[C@@H]21	0.0
CCOC(=O)c1sc(-c2ccc(OS(=O)(=O)c3ccc(Br)s3)c(C=O)c2)nc1C	0.0
C[N-]c1nnnn1C.[Au+].c1ccc([PH+](c2ccccc2)c2ccccc2)cc1	0.0
O=c1c(Oc2ccc(F)cc2F)cc2cnc(NC3CCOCC3)nc2n1CCCO	0.0
C#CCOc1cccc(-c2ncnc3cc(NC(=O)CCl)ccc23)c1	1.0
[Cl-].[O-]/N=C(\c1ccccc1)c1ccccn1.[O-]/N=C(\c1ccccc1)c1ccccn1.[O-]/N=C(\c1ccccc1)c1ccccn1.[Sm+3]	0.0
C=C1C(O)C2C(=C(CCc3ccccc3)C13CC3)C(=O)C(C)(CO)C2O (stereo unspecified)	0.0

* * *

The following molecules are shown together with reported TGI values.
tested on: MDA-MB-231 breast; experiment: NCI tumour cell line growth inhibition, 48 h

molecule	resultComparator	TGI / µM
COC(=O)[C@@H]1[C@@H](c2cccc(Cl)c2)[C@H](C(=O)OC)C2(C[C@@]1(C)O)NCCS2 (some centres undefined)	>	100
Oc1[nH]c2ccccc2c1N=Nc1ccccn1	=	38.1
COC(=O)[C@@H](C)C[C@H](Cc1ccccc1)NC(=O)c1csc(CC[C@H](C(C)C)N(C)C(=O)[C@@H](NC(=O)[C@H]2CCCCN2C)C(C)C)n1	>	8.8
COC(=O)[C@]1(c2cc3ccccc3n2S(=O)(=O)c2ccccc2)CC2CN(C(C)=O)C1CC2=O (some centres undefined)	=	7.4
OC(c1cc2ccccc2o1)c1cc2ccccc2s1 (centres undefined)	>	10
Fc1ccc2[nH]cc(-c3nonc3-c3c[nH]c4ccc(Br)cc34)c2c1	=	2.88
Nc1nc(Cl)c(N)c(NCC2(CO)CC(OCc3ccccc3)C2)n1 (centres undefined)	>	100
S=C(NC1=NCC(CN2CCN(c3ccccc3)CC2)O1)Nc1ccccc1 (centres undefined)	>	100
Cc1nn(-c2nc3ccccc3[nH]2)c(N)c1-c1ccc(Cl)cc1	>	100
COC(=O)C1C/C(=C/N(C)C)C(=S)N1 (centres undefined)	>	100
CC[C@]12C=CCN3CC[C@@]4(c5cc(Br)c(OC)cc5N(C)[C@H]4[C@@](O)(C(=O)NN)[C@@H]1O)[C@@H]32	>	100
CN[C@H]1C=C[C@@H]2/C=C(C)/C=C/[C@@H](C)[C@H]([C@H](C)[C@H](O)[C@@H](C)NC(C)=O)OC(=O)/C=C/C=C(C)\C=C\[C@]2(C)C1	=	9.97
CC[N+](CC)=c1sc2c(s1)C(c1ccc(Cl)cc1)Oc1ccc(Cl)cc1-2 (centres undefined)	=	4.35
CCOC(=O)N1CCN(c2nc(Nc3cc(C)[nH]n3)c3ccccc3n2)CC1	=	81.6
O=C(Nc1cccc(-n2ccc3c(NC(=O)c4ccccc4)nccc32)c1)Nc1cc(C(F)(F)F)cc(C(F)(F)F)c1	=	4.73
O=C(c1ccco1)N1CCCN(C(=O)c2ccco2)C1=S	>	100
O=CN1CCN(C(=O)c2ccc(Cl)cc2Cl)C1=S	>	100
COc1cccc(-c2nc3sccn3c2-c2ccnc(NCCCNS(=O)(=O)c3cccc(F)c3)c2)c1	>	100
CCCNNC(=O)/C=C/c1ccc(CNCCc2c(C)[nH]c3ccccc23)cc1	=	3.74

* * *

system: SNB-75 CNS; assay: NCI tumour cell line growth inhibition, 48 h
The following compounds are shown together with reported GI50 values.
quantityName: GI50

compound	quantityName	assayValue
OCc1ccc(-c2ccc(-c3ccc(CO)o3)[se]2)o1	GI50	37 µM
COc1ccc(S(=O)(=O)N2CC(C)(C)CN(S(=O)(=O)c3ccc(OC)cc3)C2C(=O)NO)cc1	GI50	> 20 µM
[Cl][Hg][Cl]	GI50	18 µM
COc1cc(/C=C2\C(=O)Nc3cc(C)c(O)cc32)cc(OC)c1OC	GI50	3.03 µM
CN(C)CCCNC(=O)c1cc(NC(=O)c2cc(NC(=O)CCc3c[nH]c4ccccc34)cn2C)cn1C	GI50	> 100 µM
Cc1nc(SCC(=O)Nc2nc(-c3ccc(Cl)cc3)cs2)n(Nc2ccccc2)c1C	GI50	3.48 µM
CC[N+](CC)=c1sc2c(s1)C(c1ccc(Cl)cc1)Oc1ccc(Cl)cc1-2 (stereo unspecified)	GI50	0.783 µM
S=C(Nc1ccc(Br)cc1)Nc1ccc(Br)cc1	GI50	98.7 µM
O=c1c(Oc2ccc(F)cc2F)cc2cnc(NC3CCOCC3)nc2n1CCCO	GI50	24.4 µM
Cc1ccc(-c2csc(/N=C3\C(=O)Nc4ccccc43)n2)cc1	GI50	1.17 µM
Nc1ccc(C2=NN(c3ccccc3)C(c3ccc(Cl)cc3)C2)cc1 (stereo unspecified)	GI50	3.76 µM
